biological target: T1, human CD3ed (human, UniProt P07766 23-126; P04234 22-105, limits assumed); experiment: SPR Biacore T200, IgG captured on protein A, antigen as analyte, 25 C;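 note: antigens flowed over a CM3 chip for 120 s association, KD derived from ka and kd, running buffer (ACES, NaCl, Tween20, pH 7.4) served as blank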
T1 construct: The construct injected as 'human CD3ed' in the Biacore assay is not defined; also called human CD3 epsilon/delta heterodimer
T1 sequence (P07766 23-126 limits assumed, chain 1 of 2): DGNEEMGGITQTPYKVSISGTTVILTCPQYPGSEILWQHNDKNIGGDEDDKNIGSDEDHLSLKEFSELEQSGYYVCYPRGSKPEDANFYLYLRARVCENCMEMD
T1 sequence (P04234 22-105 limits assumed, chain 2 of 2): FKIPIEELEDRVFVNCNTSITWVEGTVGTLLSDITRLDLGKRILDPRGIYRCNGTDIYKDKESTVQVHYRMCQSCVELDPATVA
Could you mark each record label 1 if its Kd falls strictly under 2000 nM, and label 0 if it equals or exceeds it?

- Binder: "dBBDu_186 / dBBDu_L108 (antibody, human IgG1, V domains shown, Tested as IgG (human IgG1 constant region, kappa light chain); also called dBBDu186/L108) VH: QVQLVESGGGLVQPGRSLRLSCAASGFTFSNAWMHWVRQAPGKGLEWVAQIKDRSNQYATYYAPSVKGRFTISRDDSKNSIYLQMNSLKTEDTAVYYCHYVHYAQASTVLPAFGVDAWGQGTTVTVSS VL: DIVMTQSPLSLPVTPGEPASISCRTSEELLHINRFTFLHWYQQKPGQAPRLLIYKVSNRFMGVPDRFSGSGSGTDFTLKISRVEAEDVGVYYCAQGSAVPFTFGQGTKLEIK"
  Discrete Label: "label 0"
- Binder: "dBBDu_186 / dBBDu_L098 (antibody, human IgG1, V domains shown, Tested as IgG (human IgG1 constant region, kappa light chain); also called dBBDu186/L098) VH: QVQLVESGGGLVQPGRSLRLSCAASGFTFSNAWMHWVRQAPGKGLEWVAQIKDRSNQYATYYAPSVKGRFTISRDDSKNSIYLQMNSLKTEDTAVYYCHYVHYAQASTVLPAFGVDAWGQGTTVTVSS VL: DIVMTQSPLSLPVTPGEPASISCAASEELVHINRYIFLHWYQQKPGQAPRLLIYKVSNRFIGVPDRFSGSGSGTDFTLKISRVEAEDVGVYYCAQGSQVPFTFGQGTKLEIK"
  Discrete Label: "label 1"
- Binder: "dBBDu_193 / dBBDu.L127 (antibody, human IgG1, V domains shown, Tested as IgG (human IgG1 constant region, kappa light chain); also called dBBDu193/L127; dBBDu_193/L127) VH: QVQLVESGGGLVQPGRSLRLSCAASGFTFSNAWMHWVRQAPGKGLEWVAQIKDRSNQYATYYAPSVKGRFTISRDDSKNSIYLQMNSLKTEDTAVYYCHYVHYSAASTLLPSFGVDAWGQGTTVTVSS VL: DIVMTQSPLSLPVTPGEPASISCRASEELLHINRHIFLHWYQQKPGQAPRLLIYKVYNRFTGVPDRFSGSGSGTDFTLKISRVEAEDVGVYYCAQGTSVPFTFGQGTKLEIK"
  Discrete Label: "label 1"

Inquiry: API: query returns whether the binder falls strictly under 2000 nM in Kd. Query: dBBDu_167 / dBBDu_L091 (antibody, human IgG1, V domains shown, Tested as IgG (human IgG1 constant region, kappa light chain); also called dBBDu167/L091) VH: QVQLVESGGGLVQPGRSLRLSCAASGFTFSNAWMHWVRQAPGKGLEWVAQIKDKGNLYAAYYAPSVKGRFTISRDDSKNSIYLQMNSLKTEDTAVYYCHYVHYASAGGGLPGFGVDAWGQGTTVTVSS VL: DIVMTQSPLSLPVTPGEPASISCSASESLLHNNRHTYLHWYQQKPGQAPRLLIYRVSNRFNGVPDRFSGSGSGTDFTLKISRVEAEDVGVYYCGQGTQVPFTFGQGTKLEIK
Reply text: label 1
